Just for reference, PubChem BioAssay (NCI) is where these values come from.

Exercise: for every item that follows, state its recorded growth inhibition.
Experiment: NCI Yeast Anticancer Drug Screen. Data for the mlh1 strain (AID 171);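 note: 0% = growth of vehicle-treated control cultures of the same strain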
Settings: S. cerevisiae mlh1 strain growth inhibition; at 100.0 µM; stronger effect = higher value
The panel holds about 79,000 compounds, 15% with a hit somewhere; the sample as a whole holds those more often.
Give bare numbers, in %.

Some solved cases for reference:
Supply reported growth inhibition belonging to this compound: COc1ccc2c3c1OC(C)C31CC(=O)CCC1CC2 (stereo not given)
1

Give the reported growth inhibition for this compound. OB(O)c1ccccc1C#Cc1ccccc1
14

Quick one: give measured growth inhibition for COc1cc(NCCCCNCC(C)(C)C)c2ncccc2c1
16

Assign growth inhibition to the following record: CS(=O)(=O)O.[Ag]
98

Please look at this compound and report its growth inhibition: Cc1cccc(C)c1NC(=O)C(C#N)C1=C(Cl)C(=O)c2ccccc2C1=O (stereo not given)
98

Supply measured growth inhibition of COc1c2c(c3c(c1CCC(=O)O)OC(C)(C)C=C3)OC(C)(C)C=C2 in your reply.
99

Specify measured growth inhibition for O=C1CC(C(O)(C(F)(F)F)C(F)(F)Cl)CCC1C(O)(C(F)(F)F)C(F)(F)Cl (stereo not given) .
98

Provide measured growth inhibition value, entry: CCCC/C=C1\CCC(CN2CCCC2)C1=O (stereo not given)
97

Tell us which growth inhibition value is on record for CC1CN(/N=C\c2ccc([N+](=O)[O-])o2)C(=O)O1 (stereo not given)
16

Report measured growth inhibition; entry is CC(C)OC(=O)NNc1c(Cl)cc(Cl)cc1Cl
8

For every record below, what is its growth inhibition?
1. C=CC(C)(C)N1C(=O)C(C(C)=O)=C(O)C1Cc1c[nH]c2ccccc12 (stereo not given)
2. CC(/C=C/c1ccc([N+](=O)[O-])o1)=N/N1CC(CN2CCOCC2)OC1=O (stereo not given)
3. O=C1C=C(NCCc2cc(Br)c(O)c(Br)c2)C(=O)c2ncccc21
4. Cc1nc2sc3c(c2c(=O)o1)CCCC3

1. 66
2. 91
3. 96
4. 2

Quick request: growth inhibition for each listed item, please.
1. COc1cc2c(cc1O)[C@H](C)C(c1ccccc1OC)O2 (stereo not given in full)
2. CC(C)OC(=O)NNc1cc(Cl)ccc1Cl
3. O=C(Oc1ccc([N+](=O)[O-])cc1)c1ccc([N+](=O)[O-])cc1
4. Cc1ccc(Nc2n[nH]c(=S)s2)c(C)c1

97
58
35
89

Could I get growth inhibition for every one of these entries?
1. CCCCCCC=C(C(=O)OCC)C(=O)OCC
2. Nc1cc(Cl)ccc1Nc1ccccc1
3. ClCCCOc1c(Cl)cc(Cl)cc1Cl
4. O=C(NCCCCN(CCCNC(=O)C(F)(F)F)Cc1ccccc1)C(F)(F)F

1: 19; 2: 79; 3: 9; 4: 7

Okay, here is my list. What is growth inhibition for each of these?
1. O=c1[nH]c2c([N+](=O)[O-])cccc2c2ccccc12
2. COC(=O)C(=O)c1c(-c2ccc(Cl)c(Cl)c2)[nH]c2[nH]n(-c3ccccc3)c(=O)c2c1=O
3. CC(C)NCCCNc1c2ccccc2nc2cccc([N+](=O)[O-])c12

1. 88
2. 57
3. 96

###

Experiment: NCI Yeast Anticancer Drug Screen. Data for the bub3 strain (AID 167)
Conditions: S. cerevisiae bub3 mutant strain, at 3.7 µM, stronger effect = higher value
This is part of a sample that, as a whole, favours compounds with a hit. Of some 79,000 tested, about 15% had one in any assay. The source made the active and inactive calls. No stated cut-off is given here; in the data, active means growth inhibition above about 70%; inactive means the rest.
OUTCOME_MEASURE: growth inhibition

Consider the reported growth inhibition for these compounds:
Supply growth inhibition value. Item: O=S(=O)(c1cccc(C(F)(F)F)c1)N1c2ccccc2-n2cccc2C1c1cccnc1 (configuration not stated)
1% (inactive)

Answer with reported growth inhibition of CCCCS/C(=C(/C#N)C(N)=O)c1cc2c([nH]1)CCCC2
-36% (inactive)

Please report growth inhibition for the following compound: O=C1C=CC(=Nc2cccc3c2-c2ccccc2C3=O)O1
0% (inactive)

Output measured growth inhibition for this item: COc1cc(OC)c(CSCC(NC(=O)OCC2c3ccccc3-c3ccccc32)C(=O)O)c(OC)c1 (configuration not stated)
10% (inactive)

Report growth inhibition, nothing else, for this compound: CCOC(=O)Nc1ccc(C)c(NC(=O)OCC)c1
8% (inactive)

Respectfully, I request growth inhibition for each entry included below.
1. c1cc(-c2sc(-c3ccncc3)c(-c3ccncc3)c2-c2ccncc2)ccn1
2. O=C(NCCNCCNC(=O)c1cc(-c2ccccc2)nc2ccccc12)c1cc(-c2ccccc2)nc2ccccc12
3. O=C1C=C(Br)C(=O)c2ccccc21
4. CCN(CC)CCCNc1ccc([N+](=O)[O-])c2nc3ccc(OC)cc3c(NCCCN(CC)CC)c12
5. CCCCCCNCCCNc1c2ccccc2nc2cccc([N+](=O)[O-])c12

1: 7% (inactive); 2: -1% (inactive); 3: 44% (inactive); 4: -7% (inactive); 5: -16% (inactive)

Provide growth inhibition for all items below, preserving their order.
1. CCCC/C=C1\CCC(CN2CCCC2)C1=O (configuration not stated)
2. COc1ccc2nc3cccc([N+](=O)[O-])c3c(NCCNCCO)c2c1

1. 33% (inactive)
2. -17% (inactive)

Dear colleague, could you send me growth inhibition for each of the items below? Thanks.
1. O=C(C(Cl)=C(N1CCCCC1)N1CCCCC1)C(Cl)Cl
2. CN(N=O)C(=O)Nc1ccc(C(=O)O)cc1

1. 2% (inactive)
2. -8% (inactive)

For every listed record, write down its growth inhibition.
1. CCCCCCNCCCNc1c2cc(OC)ccc2nc2cccc([N+](=O)[O-])c12
2. O=C(O)c1cc2c(cc1S(=O)(=O)O)C1C(C3C2C2(Cl)C(Cl)=C(Cl)C3(Cl)C2(Cl)Cl)C2(Cl)C(Cl)=C(Cl)C1(Cl)C2(Cl)Cl (configuration not stated)
3. O=C(CN(c1ccccc1)c1ccccc1)n1nnc2ccccc21
4. CCOc1ccc(N)c(S)c1
5. CN1CCN(C(=O)c2cccc3cccc(C(=O)O)c23)CC1
6. CC(C)N(CCCNc1c2ccccc2nc2cccc([N+](=O)[O-])c12)C(C)C

1. -13% (inactive)
2. -5% (inactive)
3. -19% (inactive)
4. 4% (inactive)
5. 15% (inactive)
6. -18% (inactive)

Hi, could you look up growth inhibition for each item in my list?
1. O=C(/N=N/C(=O)Oc1ccccc1)Oc1ccccc1
2. CC(=O)CCC1=C(C)C(=O)C(=O)C(C)=C1O

["-29% (inactive)", "-16% (inactive)"]
